Recorded values, source BindingDB's records for doi:10.7270/Q2QF8R9S.

Assay target: Muscarinic acetylcholine receptor M1 (Rattus norvegicus)
Sequence (P08482 whole entry): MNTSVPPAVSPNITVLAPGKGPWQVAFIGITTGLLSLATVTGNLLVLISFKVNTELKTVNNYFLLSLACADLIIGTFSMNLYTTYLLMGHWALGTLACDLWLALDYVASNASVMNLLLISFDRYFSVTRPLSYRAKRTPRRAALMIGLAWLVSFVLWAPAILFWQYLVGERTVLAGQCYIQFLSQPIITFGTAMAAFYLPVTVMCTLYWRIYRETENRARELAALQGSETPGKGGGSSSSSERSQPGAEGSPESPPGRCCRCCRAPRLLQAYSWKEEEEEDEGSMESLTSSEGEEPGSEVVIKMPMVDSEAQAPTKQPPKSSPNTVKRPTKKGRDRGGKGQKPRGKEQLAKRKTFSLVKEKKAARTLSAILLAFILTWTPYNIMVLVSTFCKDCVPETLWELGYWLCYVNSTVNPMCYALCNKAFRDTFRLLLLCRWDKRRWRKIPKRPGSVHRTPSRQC
Protocol notes: structure-activity potentiation of ACh at M1 – cell-based, calcium mobilization, CHO-K1, SAR follow-up (AID 2651)
Recorded EC50 values for a group of molecules are listed next.
Output spec: scalar in µM, unitless text.

In the examples that follow, each entry is paired with its recorded EC50.
Given smiles	Assay target	EC50 / µM
Cc1cc(NC(=O)CS(=O)(=O)c2cn(Cc3cccc(Cl)c3)c3ccccc23)no1	Muscarinic acetylcholine receptor M1 (Rattus norvegicus)	5.82
Cc1cc(NC(=O)CS(=O)(=O)c2cn(Cc3cccc(F)c3)c3ccccc23)no1	Muscarinic acetylcholine receptor M1 (Rattus norvegicus)	5.22
Cc1cc(NC(=O)CS(=O)(=O)c2cn(Cc3ccc(F)nc3)c3ccccc23)no1	Muscarinic acetylcholine receptor M1 (Rattus norvegicus)	10
Cc1cc(NC(=O)CS(=O)(=O)c2cn(Cc3cccc(Br)c3)c3cc(F)cc(F)c23)no1	Muscarinic acetylcholine receptor M1 (Rattus norvegicus)	5.37
Cc1cc(NC(=O)CS(=O)(=O)c2cn(Cc3cccc(Br)c3)c3ccccc23)no1	Muscarinic acetylcholine receptor M1 (Rattus norvegicus)	3.79

Q. Any idea what its EC50 is? The molecule is `Cc1cc(NC(=O)CS(=O)(=O)c2cn(Cc3ccccc3Cl)c3ccccc23)no1`
A. 10

Q. # input molecule: `Cc1cc(NC(=O)CS(=O)(=O)c2cn(Cc3cccc(-c4cn[nH]c4)c3)c3cc(F)cc(F)c23)no1` ; wanted: its EC50
A. 1.85

Q. Fill in: EC50 of `Cc1cc(NC(=O)CS(=O)(=O)c2cn(Cc3cccc(-c4ccn(C)n4)c3)c3ccccc23)no1` is ___
A. 3.21

Q. Query (molecule): `COc1cccc(Cn2cc(S(=O)(=O)CC(=O)Nc3cc(C)on3)c3ccccc32)c1` ; field requested: EC50
A. 6.54
